Values compiled from PubChem BioAssay (EPA / NIEHS).

read-out: urokinase plasminogen activator (uPA), PLAU (gene 5328); experiment: BSK_BE3C_uPA: BioMAP Diversity Plus: BE3C Assay for urokinase plasminogen activator (uPA) Biomarker Activity (AID 2283038); details: primary human bronchial epithelial cells; actives raise or lower the signal
The source made the active and inactive calls. The calls were made as follows: active = hit-call score of the fitted dose curve at least 0.9, where 1 is the maximum; inactive = score below 0.9.
Classes used: active, inactive

{"compound": "C=CC=CC=CCCCCC", "group": "inactive"}
{"compound": "CCCCCCCCc1ccc(Nc2ccc(CCCCCCCC)cc2)cc1", "group": "inactive"}
{"compound": "O=C(Nc1ccccc1SSc1ccccc1NC(=O)c1ccccc1)c1ccccc1", "group": "inactive"}
{"compound": "COc1ccc2nc(N)sc2c1", "group": "inactive"}
{"compound": "CCCCCCCCCCCCCCCC[N+](C)(C)CC", "group": "active"}
{"compound": "C=CC(=O)OCC(Br)CBr (stereo not drawn)", "group": "inactive"}
{"compound": "O=C(c1ccc(O)cc1)c1ccc(O)cc1O", "group": "inactive"}
{"compound": "COCc1c(C(C)C)nc(C(C)C)c(/C=C/[C@@H](O)C[C@@H](O)CC(=O)O)c1-c1ccc(F)cc1", "group": "inactive"}
{"compound": "CCCCC/C=C\\C/C=C\\CCCCCCCC(=O)OC", "group": "inactive"}
{"compound": "CCOc1nc(F)cc2nc(S(=O)(=O)Nc3c(Cl)cccc3C(=O)OC)nn12", "group": "inactive"}
{"compound": "c1ccc(-c2ccccn2)nc1", "group": "inactive"}
{"compound": "C=CCOc1c(Br)cc(Br)cc1Br", "group": "active"}
{"compound": "O=Nc1ccc(O)cc1", "group": "inactive"}

* * *

Read-out: Matrix Metallopeptidase 1 (MMP1), MMP1 (gene 4312)
Assay: BSK_MyoF_MMP1: BioMAP Diversity Plus: MyoF Assay for Matrix Metallopeptidase 1 (MMP1) Biomarker Activity (AID 2284268)
Settings: primary human lung fibroblasts
Procedure: BSK_MyoF is a cell-based, multiplexed-readout assay that uses lung fibroblasts, […], with measurements taken at 24 hours after chemical dosing in a microplate: 96-well plate.BSK_MyoF_MMP1 is an assay component measured in the BSK_MyoF assay. […] The levels of cell surface (or secreted, indicated by the prefix "s") biomarker endpoints were measured by ELISA. […] Plates were read after 6 h.
Active and inactive are the calls of the source. Rule for the calls: active = hit-call score of the fitted dose curve at least 0.9, where 1 is the maximum; inactive = score below 0.9.
Outcome codes: yes (active), no (inactive)

{"compound": "O=c1c2ccccc2oc2ccccc12", "group": "no"}
{"compound": "CCCCC(CC)COC(=O)c1ccccc1O (stereo unspecified)", "group": "yes"}
{"compound": "CCCCCCCCCCCCCCCC[N+](C)(C)CC", "group": "yes"}
{"compound": "CC(C)(c1cc(Br)c(OCCO)c(Br)c1)c1cc(Br)c(OCCO)c(Br)c1", "group": "yes"}
{"compound": "C=CCOc1c(Br)cc(Br)cc1Br", "group": "no"}
{"compound": "c1ccc2c(c1)ccc1ncccc12", "group": "no"}

* * *

assay: BSK_CASM3C_Proliferation: Cell Proliferation Assessment in the BioMAP Diversity Plus: CASM3C Assay (AID 2283047); details: primary human coronary artery smooth muscle cells;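 also: sulforhodamine B total protein stain as relative cell number at 560 nm; sub-confluent cells exposed 48 h before staining; fitted both ways against DMSO so gain or loss of cell number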
Calls of active or inactive are those of the source. Rule for the calls: active = hit-call score of the fitted dose curve at least 0.9, where 1 is the maximum; inactive = score below 0.9.
Possible outcomes: t (active), f (inactive)

{"compound": "CO[Si](OC)(OC)c1ccccc1", "group": "f"}
{"compound": "CCOc1nc(F)cc2nc(S(=O)(=O)Nc3c(Cl)cccc3C(=O)OC)nn12", "group": "f"}
{"compound": "CC1OC1C1CCC2(C)OC2C1 (configuration not stated)", "group": "f"}
{"compound": "Nc1ccc(N)c(Cl)c1", "group": "t"}
{"compound": "c1ccc2c(c1)ccc1ncccc12", "group": "f"}
{"compound": "C=C[Si](OC(C)=O)(OC(C)=O)OC(C)=O", "group": "f"}
{"compound": "C#CC1(O)CC[C@H]2[C@@H]3CCC4=CCCC[C@@H]4[C@H]3CC[C@@]21C (some centres not stated)", "group": "t"}

* * *

read-out: Monokine induced gamma interferon (MIG), CXCL9 (gene 4283); experiment: BSK_SAg_MIG: BioMAP Diversity Plus: SAg Assay for Monokine induced gamma interferon (MIG) Biomarker Activity (AID 2283092); conditions: primary human HUVEC with PBMC; actives raise or lower the signal
The source made the active and inactive calls. How the source made its calls: active means hit-call score of the fitted dose curve at least 0.9, where 1 is the maximum; inactive means score below 0.9.
Outcome codes: active, inactive

{"compound": "CCCCNc1ccc(NCCCC)c2c1C(=O)c1ccccc1C2=O", "group": "inactive"}
{"compound": "c1ccc2c(c1)ccc1cc3c(ccc4ccccc43)cc12", "group": "inactive"}
{"compound": "CCCCCCCCCCCCCCCC[N+](C)(C)CC", "group": "active"}
{"compound": "O=C(Nc1ccccc1SSc1ccccc1NC(=O)c1ccccc1)c1ccccc1", "group": "inactive"}
{"compound": "CN1C(=O)N(C)C(O)C1O (stereo not drawn)", "group": "inactive"}
{"compound": "CCCCCCCCc1ccc(Nc2ccc(CCCCCCCC)cc2)cc1", "group": "inactive"}
{"compound": "C/C=C\\C/C=C/CCCCCCCCOC(C)=O", "group": "inactive"}
{"compound": "O=C1CCCN1CCO", "group": "inactive"}
{"compound": "O=C(c1ccc(O)cc1)c1ccc(O)cc1O", "group": "inactive"}
{"compound": "C=C[Si](OC(C)=O)(OC(C)=O)OC(C)=O", "group": "inactive"}
{"compound": "CC(C)C(=O)C(C)C", "group": "inactive"}
{"compound": "CCOc1nc(F)cc2nc(S(=O)(=O)Nc3c(Cl)cccc3C(=O)OC)nn12", "group": "inactive"}
{"compound": "COc1ccc2nc(N)sc2c1", "group": "inactive"}

* * *

target: Peroxisome proliferator-activated receptor gamma (Homo sapiens); assay: NVS_NR_hPPARg: NovaScreen (NVS) Nuclear Receptor Binding Assay for human Peroxisome Proliferator-activated Receptor gamma (PPARg) (AID 2283370)
Results filed as inconclusive are left out. Active and inactive are the calls of the source. The calls were made as follows: active = hit-call score of the fitted dose curve at least 0.9, where 1 is the maximum; inconclusive = response in the unintended direction; inactive = score below 0.9.
Outcomes: 1 (active), -1 (inactive)

{"compound": "CCCCCCCC/C=C\\CCCCCCCC(=O)OCCO", "group": -1}
{"compound": "CC1=NN(c2cc(S(=O)(=O)O)ccc2Cl)C(=O)C1N=Nc1ccccc1 (configuration not stated)", "group": -1}
{"compound": "CCN(CCC#N)c1ccc(N=Nc2c(Cl)cc([N+](=O)[O-])cc2Cl)cc1", "group": 1}
{"compound": "CCCCCCCC/C=C\\CCCCCCCC(=O)O", "group": 1}
{"compound": "CC(C)c1ccc2c(C(C)C)cc(C(C)C)c(S(=O)(=O)O)c2c1", "group": 1}
{"compound": "CC(=O)OC(C)C", "group": -1}
{"compound": "O=c1cc(-c2ccccc2)oc2ccccc12", "group": -1}

* * *

molecular target: Retinoic acid receptor alpha (Homo sapiens); assay: ATG_DR5_RAR_CIS: Attagene CIS-FACTORIAL HepG2 Assay for human Retinoic Acid Receptor Alpha (RARE), DR5 submotif (AID 2282934); conditions: HepG2 Attagene cis-factorial RARE DR5 reporter, mRNA; actives raise or lower the signal
The source made the active and inactive calls. Rule for the calls: active = hit-call score of the fitted dose curve at least 0.9, where 1 is the maximum; inactive = score below 0.9.
Possible outcomes: true (1) = active, false (0) = inactive

{"molecule": "CCCCCCOc1cc(C)c(O)c(C)c1C", "group": "false (0)"}
{"molecule": "CCCCCCCCO[C@@H]1O[C@H](CO)[C@@H](O)[C@H](O)[C@H]1O", "group": "false (0)"}
{"molecule": "C=CCCCCCCCCC(=O)OCCCC", "group": "false (0)"}
{"molecule": "CC1=CC[C@H]2C[C@@H]1C2(C)C", "group": "false (0)"}
{"molecule": "SCCc1cnccn1", "group": "true (1)"}
{"molecule": "Oc1ccc(Cl)cc1Cc1cc(Cl)ccc1O", "group": "true (1)"}
{"molecule": "CCC(C)OC(=O)c1ccc(O)cc1 (centres undefined)", "group": "false (0)"}
{"molecule": "CCCc1ccc(OC)cc1", "group": "false (0)"}
{"molecule": "COc1c2ccoc2cc2oc(=O)ccc12", "group": "false (0)"}
{"molecule": "CCCCC(CC)COC(=O)c1ccccc1 (centres undefined)", "group": "false (0)"}
{"molecule": "CCCCCCCC/C=C\\CCCCCCCC(=O)O", "group": "true (1)"}
{"molecule": "CCN(Cc1cccc(S(=O)(=O)O)c1)c1ccc(C(=C2C=CC(=[N+](CC)Cc3cccc(S(=O)(=O)[O-])c3)C=C2)c2ccccc2)cc1", "group": "false (0)"}
{"molecule": "CCC(C)C=O (centres undefined)", "group": "false (0)"}
{"molecule": "Cc1cccc(C(=O)O)c1", "group": "false (0)"}

* * *

assay: ATG_SREBP_CIS: Attagene CIS-FACTORIAL HepG2 Assay for human Sterol Regulatory Element Binding (SREBP) (AID 2282962); conditions: HepG2 Attagene cis-factorial SREBP reporter, mRNA; actives raise or lower the signal
Calls of active or inactive are those of the source. The calls were made as follows: active = hit-call score of the fitted dose curve at least 0.9, where 1 is the maximum; inactive = score below 0.9.
Labels: active, inactive

{"molecule": "CCCCCCCOC(=O)CCC", "group": "inactive"}
{"molecule": "O=C(Oc1ccccc1)c1ccc2ccccc2c1O", "group": "inactive"}
{"molecule": "C=COCCCC", "group": "inactive"}
{"molecule": "CC1(C)O[C@@H]2C[C@H]3[C@@H]4C[C@H](F)C5=CC(=O)C=C[C@]5(C)[C@@]4(F)[C@@H](O)C[C@]3(C)[C@]2(C(=O)CO)O1", "group": "inactive"}
{"molecule": "O=C1CCCN1CCO", "group": "inactive"}
{"molecule": "O=C(OCC1CCC2OC2C1)C1CCC2OC2C1 (centres undefined)", "group": "inactive"}
{"molecule": "COCC(C)N (centres undefined)", "group": "inactive"}
{"molecule": "O=C1OC(=O)c2cc(Oc3ccc4c(c3)C(=O)OC4=O)ccc21", "group": "inactive"}
{"molecule": "CCC(Cc1ccccc1)(C(=O)c1ccc(N2CCOCC2)cc1)N(C)C (centres undefined)", "group": "inactive"}
{"molecule": "OC1CCCC1", "group": "inactive"}
{"molecule": "O=c1c2ccccc2nnn1CCl", "group": "inactive"}
{"molecule": "Cc1ccc(OC(=O)CC(C)C)cc1", "group": "inactive"}
{"molecule": "CC1(C)[C@H]2CC[C@]1(C)C(=O)C2", "group": "inactive"}
{"molecule": "O=C(c1ccc(O)cc1)c1ccc(O)cc1O", "group": "active"}
